assay: Dissolution profiles of flupirtine acid addition salts in ethanol (compacted substance); format: physicochemical; conditions: 5 min; 100 mg compacted, 1000 ml ethanol, 37° C., basket 50 UpM
# Amount of substance dissolved values compiled below
The reply should contain only the number, in mg.

Some entries whose results are on file:
Ask: Fill blank: measured Amount of substance dissolved of the compound CCOC(=O)Nc1ccc(NCc2ccc(F)cc2)nc1N.O=C(O)C(F)(F)F [Flupirtine triflutate, Flupirtine Triflutate] is ____.
Reply: 98.5

Ask: And the next one, CCOC(=O)Nc1ccc(NCc2ccc(F)cc2)nc1N [Flupirtine propionate] ?
Reply: 110.0

Ask: And the next one, CCOC(=O)Nc1ccc(NCc2ccc(F)cc2)nc1N.O=C(O)/C=C\C(=O)O [Flupirtine maleate A, Flupirtine Maleate Form A, reference compound] ?
Reply: 2.1

Ask: And the next one, CC(=O)O.CCOC(=O)Nc1ccc(NCc2ccc(F)cc2)nc1N [Flupirtine acetate] ?
Reply: 50.3

// below: Amount of substance dissolved requested for another compound
Ask: Fill blank: measured Amount of substance dissolved of the compound CCOC(=O)Nc1ccc(NCc2ccc(F)cc2)nc1N.O=C(O)/C=C\C(=O)O [Flupirtine maleate B, Flupirtine Maleate Form B, reference compound] is ____.
Reply: 4.2
